Record: compiled IC50 on Histone-lysine N-methyltransferase SETD7 (Homo sapiens) from multiple reports.
Sequence (Q8WTS6 whole entry): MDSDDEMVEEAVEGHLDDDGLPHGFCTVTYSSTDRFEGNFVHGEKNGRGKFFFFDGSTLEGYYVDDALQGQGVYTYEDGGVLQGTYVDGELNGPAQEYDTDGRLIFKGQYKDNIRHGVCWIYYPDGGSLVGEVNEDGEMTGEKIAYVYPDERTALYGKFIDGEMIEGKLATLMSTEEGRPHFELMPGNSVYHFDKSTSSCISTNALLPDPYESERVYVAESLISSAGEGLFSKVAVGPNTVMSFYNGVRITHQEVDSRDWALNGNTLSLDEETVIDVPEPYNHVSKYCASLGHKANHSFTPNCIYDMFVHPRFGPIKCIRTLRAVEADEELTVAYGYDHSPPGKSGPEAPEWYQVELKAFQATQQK

Cc1ccc(C2=CC(=O)C=CC2=O)cc1	> 200 µM
Cc1cc(C)c(CNC(=O)c2cc(-c3ccc(N4CCN(C)CC4)nc3)cc3c2cnn3C(C)C)c(=O)[nH]1	214 µM
COc1ccc(OC)c(-c2ccc(CN3CCOCC3)c(NS(=O)(=O)c3ccccc3)c2)c1	> 200 µM
CN(C)CCNC(=O)c1ccc(-c2cccc(C#N)c2)cc1	> 200 µM
N#Cc1ccc(-c2ccc(C(=O)O)cc2)cc1	> 200 µM
O=c1c(O)c(-c2ccc(O)cc2O)oc2cc(O)cc(O)c12	6.02 µM
CC(C)(C)OC(=O)N1CCN(C(=O)c2ccc(-c3ccc(C#N)cc3)cc2)CC1	> 200 µM
CC(C)(C)OC(=O)N1CCN(C(=O)c2ccc(-c3cccc(C#N)c3)cc2)CC1	> 200 µM
O=C1C=CC(=O)C(c2ccc(CN3CCOCC3)c(NS(=O)(=O)c3ccc(C(F)(F)F)cc3)c2)=C1	> 200 µM
Nc1ncnc2c1ncn2[C@@H]1O[C@H](CSCC[C@H](N)C(=O)O)[C@@H](O)[C@H]1O	30 µM

Item COc1cc2c(NC3CCN(C)CC3)nc(N3CCCN(C)CC3)nc2cc1OCCCN(C)C has what recorded IC50?
> 40 µM

Also COc1cc2c(NC3CCN(C)CC3)nc(N3CCCN(C)CC3)nc2cc1OCCOCCN(C)C , if possible.
> 40 µM

Also Cc1ccc(C2=CC(=O)C=CC2=O)cc1C , if possible.
> 200 µM

Also O=C1C=C(O)C(=O)c2ccccc21 , if possible.
> 200 µM
